# TARGET_SYSTEM: Sialic acid-binding Ig-like lectin 9 (Homo sapiens)
# ASSAY_DETAILS: Hs-Siglec9 ALPHAscreen SOP 20170721
# Design: scale not given: direction of the effect not stated beside the values
# MEASUREMENT_SETUP: 10 µM
QUANTITY_MEASURED: Percent Effect (%)
Quick note: give the figure in %, leave out the unit.

So the reported Percent Effect for CC(C)COC(C)C(=O)NCc1ccc(OC(C)C)nc1 (stereo unspecified) , on Sialic acid-binding Ig-like lectin 9 (Homo sapiens), turned out to be 1.85

Lab entry: Sialic acid-binding Ig-like lectin 9 (Homo sapiens) assay, compound CC(C)C(=O)NCC(=O)N(C)C1CCCN(C2Cc3ccccc3C2)C1 (stereo unspecified) , Percent Effect = 3.43

Reading of Percent Effect for CN(C)C(=O)N1CCOCC2(CCN(c3ccccn3)C2)C1 (stereo unspecified) with Sialic acid-binding Ig-like lectin 9 (Homo sapiens): -5.57

Measured Percent Effect for this entry Cc1cc(C2CCCN(C(=O)c3c(C)noc3C)C2)n[nH]1 (stereo unspecified) on Sialic acid-binding Ig-like lectin 9 (Homo sapiens): 9.23

Entry Cc1nc(COCc2cnc3n2CCN(CC2CCC2)C3C)cs1 (stereo unspecified) : Percent Effect on Sialic acid-binding Ig-like lectin 9 (Homo sapiens) = 4.28

Note to self: Percent Effect of Cc1ccc(C(=O)N(C)Cc2cc(Br)cs2)c(=O)[nH]1 with Sialic acid-binding Ig-like lectin 9 (Homo sapiens) was -2.8
